- MEASURED ON: human TLR8 (Homo sapiens, UniProt Q9NR97)
- Sequence (Q9NR97 27-1041): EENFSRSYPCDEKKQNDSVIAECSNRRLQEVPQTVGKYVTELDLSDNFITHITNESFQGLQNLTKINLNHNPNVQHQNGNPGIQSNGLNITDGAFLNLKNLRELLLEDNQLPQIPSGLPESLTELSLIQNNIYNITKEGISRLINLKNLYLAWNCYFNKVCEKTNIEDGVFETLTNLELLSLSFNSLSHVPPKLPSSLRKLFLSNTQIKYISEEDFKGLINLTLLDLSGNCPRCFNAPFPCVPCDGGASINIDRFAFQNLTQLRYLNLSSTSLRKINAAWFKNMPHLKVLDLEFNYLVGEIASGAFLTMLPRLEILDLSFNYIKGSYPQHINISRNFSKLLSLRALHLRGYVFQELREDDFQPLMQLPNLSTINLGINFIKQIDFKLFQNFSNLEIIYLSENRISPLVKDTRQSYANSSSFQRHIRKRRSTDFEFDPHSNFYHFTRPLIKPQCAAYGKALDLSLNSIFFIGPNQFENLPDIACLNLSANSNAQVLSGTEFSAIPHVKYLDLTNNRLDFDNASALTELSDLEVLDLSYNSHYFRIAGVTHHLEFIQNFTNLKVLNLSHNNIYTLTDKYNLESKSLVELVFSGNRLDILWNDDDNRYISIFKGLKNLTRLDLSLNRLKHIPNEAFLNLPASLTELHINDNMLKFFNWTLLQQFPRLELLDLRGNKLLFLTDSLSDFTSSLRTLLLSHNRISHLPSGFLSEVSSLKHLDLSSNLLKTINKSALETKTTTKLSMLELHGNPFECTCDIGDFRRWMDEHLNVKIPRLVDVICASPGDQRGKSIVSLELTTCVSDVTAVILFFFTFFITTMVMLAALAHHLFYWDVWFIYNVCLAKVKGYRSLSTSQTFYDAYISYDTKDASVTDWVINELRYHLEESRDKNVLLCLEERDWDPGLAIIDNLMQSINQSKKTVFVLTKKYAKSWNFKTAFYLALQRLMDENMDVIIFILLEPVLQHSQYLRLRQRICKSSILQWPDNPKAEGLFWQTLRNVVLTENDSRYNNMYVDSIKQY
- EXPERIMENT DESCRIPTION: TLR7/8/9 Inhibition Reporter Assays (TLR8)
- CONDITIONS: HEK-Blue cells overexpressing human TLR8, SEAP reporter, stimulated with TLR8 ligand R848
- Procedure: HEK-Blue™-cells (Invivogen) overexpressing human TLR7, TLR8 or TLR9 receptors were used for screening inhibitors of these receptors using an inducible SEAP (secreted embryonic alkaline phosphatase) reporter gene under the control of the IFN-β minimal promoter fused to five NF-κB and AP-1-binding sites. […] The percent inhibition is determined as the % reduction in the HEK-Blue signal present in wells treated with agonist plus DMSO alone compared to wells treated with a known inhibitor.
ASSAY READOUT: IC50 (µM)

The following molecules have reported results that may help.
> print(dat)
                                smiles.text  quantitative.result
1  Cc1nc(-c2ccc(CN3CCC(N4CCCC4)CC3)cc2)cc2c1nc(-c1ccc(S(C)(=O)=O)cc1)n2C                  5.5
2  COc1ccc(-c2nc3c(C)nc(-c4ccc(N5CC6(C5)CN(C5CCC5)C6)cc4)cc3n2C)cc1OC                  6.9
3  Cc1cc(-c2nc3c(C)nc(-c4ccc(N5CCN(CC6CC6)CC5)cc4)cc3n2C)cc(C)n1                   18
4  CC(C)N1CC2(CCN(c3ccc(-c4cc5c(cn4)nc(-c4ccc(S(C)(=O)=O)cc4)n5C4CC4)cc3)CC2)C1                  1.2
5  Cc1nc(-c2ccc(N3CCN(CC(C)(C)O)CC3)cc2)cc2c1nc(-c1ccc(S(C)(=O)=O)cc1)n2C                   13

P. Cc1nc(-c2ccc(C3CCN(C)CC3)cc2)cc2c1nc(-c1ccc(S(C)(=O)=O)cc1)n2C
Q. CC(C)CN1CC2(CCN(c3ccc(-c4cc5c(cn4)nc(-c4ccc(S(C)(=O)=O)cc4)n5C4CC4)cc3)CC2)C1
R. COCCN1CC2(C1)CN(c1ccc(-c3cc4c(nc(-c5ccc(S(C)(=O)=O)cc5)n4C)c(C)n3)cc1)C2
S. Cc1nc(-c2ccc(N3C[C@H]4CN(CC(C)(C)O)C[C@H]4C3)cc2)cc2c1nc(-c1ccc(S(C)(=O)=O)cc1)n2C
q: Hello, I need these entries ordered by IC50, highest reading first. Thanks! # list labels per requested ordering
a: P, R, Q, S

P. Cc1nc(-c2ccc(N3CCN(C4CCC4)CC3)cc2)cc2c1nc(-c1ccc(S(C)(=O)=O)cc1)n2C
Q. Cc1nc(-c2ccc(N3CCC(N4CCCC4)CC3)cc2F)cc2c1nc(-c1ccc(S(C)(=O)=O)cc1)n2C
R. CS(=O)(=O)c1ccc(-c2nc3cnc(-c4ccc(N5CCN(CCN6CCOCC6)CC5)cc4)cc3n2C2CC2)cc1
S. Cc1nc(-c2ccc(N3CC4(CN(CC(C)C)C4)C3)cc2)cc2c1nc(-c1ccc(S(C)(=O)=O)cc1)n2C
q: Hey, quick one: sort these by IC50, largest value first please. Form entry: ranked labels (order as requested).
a: R, S, P, Q

P. CC(C)N1C[C@H]2CN(c3ccc(-c4cc5c(cn4)nc(-c4ccc(S(C)(=O)=O)cc4)n5C4CC4)cc3)C[C@H]2C1
Q. Cc1nc(-c2ccc(N3CCC4(CC3)CN(CC(C)C)C4)cc2)cc2c1nc(-c1ccc(S(C)(=O)=O)cc1)n2C
q: Of P and Q , whose reported IC50 is the larger number? Write down the label of the entry you select.
a: Q
(Q: 3.9 µM, P: 2 µM)

a. Cc1nc(-c2ccc(N3C[C@H]4CN(CC(C)C)C[C@H]4C3)cc2)cc2c1nc(-c1ccc(S(C)(=O)=O)cc1)n2C
b. Cc1nc(-c2ccc(N3C[C@@H]4CN(C(C)C)C[C@@H]4C3)cc2)cc2c1nc(-c1ccc(S(C)(=O)=O)cc1)n2C
c. COc1ccc(-c2nc3c(C)nc(-c4ccc(N5C[C@H]6CN(CC(C)(C)O)C[C@H]6C5)cc4)cc3n2C)cc1OC
q: List from greatest to least IC50. Record the ranking as a list of labels in the requested order.
a: c, a, b
(c: 44 µM, a: 3.1 µM, b: 1.8 µM)
